- tested_target: c-Met (cytoplasmic domain) (Homo sapiens, UniProt P08581)
- Construct: 10 ng/mL c-Met (cytoplasmic domain, Invitrogen Corporation #PV3143); purchased Invitrogen Corporation PV3143
- Sequence (P08581 956-1390 limits assumed): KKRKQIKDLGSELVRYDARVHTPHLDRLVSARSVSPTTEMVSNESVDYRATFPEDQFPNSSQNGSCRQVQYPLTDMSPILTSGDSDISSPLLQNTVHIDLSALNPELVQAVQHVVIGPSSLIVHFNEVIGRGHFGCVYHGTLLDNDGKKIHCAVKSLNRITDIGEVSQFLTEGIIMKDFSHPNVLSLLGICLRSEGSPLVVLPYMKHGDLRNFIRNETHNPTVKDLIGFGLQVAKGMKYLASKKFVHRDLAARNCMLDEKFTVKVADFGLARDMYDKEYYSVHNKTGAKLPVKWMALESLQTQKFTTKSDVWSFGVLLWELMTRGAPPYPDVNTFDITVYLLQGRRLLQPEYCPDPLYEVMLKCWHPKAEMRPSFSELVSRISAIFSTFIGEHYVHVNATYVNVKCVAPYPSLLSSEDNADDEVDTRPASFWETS
- experiment_description: c-Met Kinase Assay (same methods as for ALK, with modifications)
- Format: biochemical
- study_conditions: c-Met kinase inhibition, 1 μM ATP (Km level); read-out: cMet Activity
For each record, write down the corresponding IC50.

A selection of reference data follows.
CS(=O)(=O)Nc1ccccc1Nc1nc(Nc2ccc3c(c2)C2CCC3CN(C(=O)C(F)(F)F)C2)ncc1Cl (stereo not drawn) [Example 291] :: 1000 to 10000 nM
COCCN1CCc2ccc(Nc3ncc(Cl)c(N[C@@H]4CCCC[C@H]4NS(=O)(=O)CC(F)(F)F)n3)cc2CC1 [Example 452] :: 1000 to 10000 nM

Go through the list and state IC50 for each entry.
1. CN1C(=O)CCC(C)(C)c2cc(Nc3ncc(Cl)c(N[C@H]4[C@@H](C(N)=O)[C@@H]5C=C[C@H]4C5)n3)ccc21 (relative stereo) [Example 386]
2. CNC(=O)c1ccccc1Nc1nc(Nc2ccc3c(c2)CCN(C[C@H](OC)C(F)(F)F)CC3)ncc1Cl [Example 335]
3. CCNC(=O)c1ccccc1Nc1nc(Nc2ccc3c(c2)CCN(CCOC)CC3)ncc1Cl [Example 343]
4. CCNC(=O)c1ccccc1Nc1nc(Nc2cc3c(cc2OC)CC(=O)N(CC)CC3)ncc1Cl [Example 255]
5. CC1(C)CCC(=O)Nc2ccc(Nc3ncc(Cl)c(Nc4ccccc4C(=O)NC4CC4)n3)cc21 [Example 341]
6. CCN1C(=O)C(C)(C)CCc2c1ccc(Nc1ncc(Cl)c(Nc3ccccc3C(=O)NC)n1)c2OC [Example 144]
7. CCN1C2CCC1c1cc(Nc3ncc(Cl)c(Nc4ccccc4NS(C)(=O)=O)n3)ccc1C2 (stereo not drawn) [Example 72]

**A:**
100 to 1000 nM
< 100 nM
< 100 nM
> 10000 nM
100 to 1000 nM
1000 to 10000 nM
100 to 1000 nM

* * *

- tested_target: c-Met (cytoplasmic domain) (Homo sapiens)
- Construct: 10 ng/mL c-Met (cytoplasmic domain, Invitrogen Corporation #PV3143); purchased Invitrogen Corporation PV3143
- experiment_description: c-Met Kinase Assay (same methods as for ALK, with modifications)
- Format: biochemical
- study_conditions: c-Met kinase inhibition, 1 μM ATP (Km level); read-out: cMet Activity
- Procedure: Briefly, each 96-well plate was coated with 100 μL/well of 10 μg/mL substrate (phospholipase C-γ) in Tris-buffered saline (TBS). […] The reaction was initiated by adding enzyme (30 ng/ml ALK) and was allowed to proceed at 37° C. for 15 minutes. Detection of the phosphorylated product was performed by adding 100 μl/well of Eu-N1 labeled PT66 antibody (Perkin Elmer # AD0041). Data analysis was performed using ActivityBase (IDBS, Guilford, UK). […]
pIC50: −log10 of the molar value.
For each record, write down the corresponding pIC50.

A selection of reference data follows.
COc1cc2c(cc1Nc1ncc(Cl)c(N[C@@H]3CCCC[C@H]3NS(C)(=O)=O)n1)CCN(C(=O)C(F)(F)F)CC2 :: < 5.00
CCN1CCc2ccc(Nc3ncc(Cl)c(N[C@@H]4CCCC[C@H]4NC(=O)N(C)C)n3)cc2CC1 :: 6.00 to 7.00
CNC(=O)c1ccccc1Nc1nc(Nc2ccc3c(c2)CNCCN3C)ncc1Cl :: > 7.00
CN1CCCCc2cc(Nc3ncc(Cl)c(Nc4ccccc4NS(C)(=O)=O)n3)ccc21 :: 6.00 to 7.00
CS(=O)(=O)N[C@@H]1CCCC[C@H]1Nc1nc(Nc2ccc3c(c2)C2CCC3CNC2)ncc1Cl (stereo partly drawn) :: 5.00 to 6.00

Please find the next compound below.
**Q:** Give the reported pIC50 for this compound. CNS(=O)(=O)c1ccccc1Nc1nc(Nc2ccc3c(c2)CCCC(=O)N3CC(=O)O)ncc1Cl
**A:** > 7.00

* * *

For each record, write down the corresponding IC50.
- tested_target: c-Met (cytoplasmic domain) (Homo sapiens)
- Construct: 10 ng/mL c-Met (cytoplasmic domain, Invitrogen Corporation #PV3143); purchased Invitrogen Corporation PV3143
- experiment_description: c-Met Kinase Assay (same methods as for ALK, with modifications)
- Type: biochemical
- study_conditions: 1 μM ATP (Km level), 10 ng/mL c-Met; read-out: cMet Activity (c-Met kinase inhibition, IC50 class)

COc1cc2c(cc1Nc1ncc(Cl)c(N[C@H]3[C@@H](C(N)=O)[C@@H]4C=C[C@H]3C4)n1)CCC(NCC(F)F)CC2 (single isomer, unassigned) [Example 1053] :: > 10 µM
COc1cc2c(cc1Nc1ncc(Cl)c(Nc3ccccc3S(=O)(=O)N(C)C)n1)CCC(N1CCN(C)CC1)CC2 (stereo not drawn) :: 1 to 10 µM
CS(=O)(=O)c1cccc(F)c1Nc1nc(Nc2ccc3c(c2)NC(=O)CCC3)ncc1Cl :: > 10 µM
COc1ccc2c(c1Nc1ncc(Cl)c(N[C@@H]3CCCC[C@H]3NS(C)(=O)=O)n1)CCC(NCC(F)F)CC2 (single isomer, unassigned) [Example 1074] :: > 10 µM
CCNC(=O)c1cccc(F)c1Nc1nc(Nc2ccc3c(c2)CCN(CC(=O)N(C)C)CC3)ncc1Cl :: < 0.1 µM

Go through the list and state IC50 for each entry.
1. COCCN1CCc2ccc(Nc3ncc(Cl)c(N[C@@H]4CCC[C@@H](NS(C)(=O)=O)C4)n3)cc2CC1 (relative stereo)
2. CCN1C(=O)CCC(C)(C)c2ccc(Nc3ncc(Cl)c(Nc4c(F)cccc4N(C)CCC#N)n3)cc21
3. CNC(=O)CN1CCc2cc(Nc3ncc(Cl)c(N[C@@H]4CCCC[C@H]4NS(C)(=O)=O)n3)c(OC)cc2CC1
4. C#CCNC(=O)c1cccc(F)c1Nc1nc(Nc2ccc3c(c2)N(CC)C(=O)CCC3(C)C)ncc1Cl
5. COCCN1CCc2ccc(Nc3ncc(Cl)c(Nc4ccccc4Cl)n3)cc2CC1

**A:**
1: 1 to 10 µM; 2: 1 to 10 µM; 3: > 10 µM; 4: < 0.1 µM; 5: 0.1 to 1 µM

Go through the list and state IC50 for each entry.
1. CNC(=O)CN1CCc2cc(Nc3ncc(Cl)c(Nc4ccccc4C(=O)NC)n3)c(OC)cc2CC1
2. COc1cc2c(cc1Nc1ncc(Cl)c(N[C@H]3[C@@H](C(N)=O)[C@@H]4C=C[C@H]3C4)n1)CCN(CC(=O)N1CCCC1)CC2

**A:**
["1 to 10 µM", "> 10 µM"]

* * *

For each record, write down the corresponding IC50.
- tested_target: baculovirus-expressed ALK (Homo sapiens, UniProt Q9UM73)
- Construct: host or cells: baculovirus expression system
- Sequence (Q9UM73 19-1620): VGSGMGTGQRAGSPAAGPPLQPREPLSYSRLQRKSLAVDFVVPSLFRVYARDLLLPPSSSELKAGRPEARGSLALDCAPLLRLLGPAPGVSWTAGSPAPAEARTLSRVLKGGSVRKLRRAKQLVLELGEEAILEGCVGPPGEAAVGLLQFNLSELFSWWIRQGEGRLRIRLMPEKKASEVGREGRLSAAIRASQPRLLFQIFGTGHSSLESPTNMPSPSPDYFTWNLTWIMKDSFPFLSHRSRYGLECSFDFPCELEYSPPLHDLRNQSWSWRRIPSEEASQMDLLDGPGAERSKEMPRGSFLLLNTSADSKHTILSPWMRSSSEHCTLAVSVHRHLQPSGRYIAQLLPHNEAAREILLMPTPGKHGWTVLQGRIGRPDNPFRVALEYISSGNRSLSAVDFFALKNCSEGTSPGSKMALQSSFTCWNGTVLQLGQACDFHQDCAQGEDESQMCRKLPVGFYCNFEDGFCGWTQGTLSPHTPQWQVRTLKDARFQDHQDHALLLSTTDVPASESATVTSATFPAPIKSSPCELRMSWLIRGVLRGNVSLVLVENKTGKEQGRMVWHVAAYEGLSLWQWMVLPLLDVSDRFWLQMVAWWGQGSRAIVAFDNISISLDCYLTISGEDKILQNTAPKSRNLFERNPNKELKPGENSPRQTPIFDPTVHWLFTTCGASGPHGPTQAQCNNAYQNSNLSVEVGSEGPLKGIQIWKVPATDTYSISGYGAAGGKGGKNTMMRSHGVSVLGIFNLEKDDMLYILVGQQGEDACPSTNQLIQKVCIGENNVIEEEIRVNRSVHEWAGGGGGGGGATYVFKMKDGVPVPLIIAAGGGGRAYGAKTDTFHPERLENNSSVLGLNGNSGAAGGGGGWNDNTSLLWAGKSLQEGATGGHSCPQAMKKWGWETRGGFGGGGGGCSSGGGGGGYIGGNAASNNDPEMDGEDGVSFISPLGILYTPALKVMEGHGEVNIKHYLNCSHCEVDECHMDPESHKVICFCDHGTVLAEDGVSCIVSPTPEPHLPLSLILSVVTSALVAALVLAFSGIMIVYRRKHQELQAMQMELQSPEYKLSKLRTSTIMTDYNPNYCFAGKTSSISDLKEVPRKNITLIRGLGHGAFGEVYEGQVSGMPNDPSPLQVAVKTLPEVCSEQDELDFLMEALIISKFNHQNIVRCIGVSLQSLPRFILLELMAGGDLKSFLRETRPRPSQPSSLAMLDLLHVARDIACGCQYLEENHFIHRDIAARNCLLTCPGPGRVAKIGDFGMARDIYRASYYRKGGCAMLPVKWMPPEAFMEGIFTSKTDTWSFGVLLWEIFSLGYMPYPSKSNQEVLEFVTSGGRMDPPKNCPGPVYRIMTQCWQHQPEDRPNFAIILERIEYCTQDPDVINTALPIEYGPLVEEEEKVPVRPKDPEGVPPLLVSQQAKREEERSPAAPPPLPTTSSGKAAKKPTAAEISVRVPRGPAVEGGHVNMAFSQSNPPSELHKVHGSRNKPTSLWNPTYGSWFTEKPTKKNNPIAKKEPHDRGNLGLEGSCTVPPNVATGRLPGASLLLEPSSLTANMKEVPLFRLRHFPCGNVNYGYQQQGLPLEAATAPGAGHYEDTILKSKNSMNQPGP
- experiment_description: ALK Kinase Assay (ELISA-type, time-resolved fluorescence)
- Format: biochemical
- study_conditions: ALK kinase inhibition, 1 μM ATP; read-out: ALK Activity

A selection of reference data follows.
C#CCNC(=O)c1cccc(F)c1Nc1nc(Nc2ccc3c(c2)N(CC)CC(O)(CO)CO3)ncc1Cl (centres unmarked) [Example 1721] :: 100 to 1000 nM
O=C1Cc2ccc(Nc3ncc(Cl)c(Nc4ccccc4-n4cccn4)n3)cc2CCN1 [Example 1813] :: 1000 to 10000 nM
COCCN1CC(=O)Nc2cc(Nc3ncc(Cl)c(N[C@@H]4CCCC[C@H]4NS(C)(=O)=O)n3)c(OC)cc2C1 [Example 1664] :: < 100 nM
CCN1CCCOc2cc(Nc3ncc(Cl)c(N[C@@H]4CCCC[C@H]4NS(C)(=O)=O)n3)c(F)cc21 [Example 1687] :: < 100 nM
CCN1CCN(CC)c2cc(Nc3ncc(Cl)c(N[C@@H]4CCCC[C@H]4NS(C)(=O)=O)n3)c(OC)cc2C1 [Example 1456] :: < 100 nM

Go through the list and state IC50 for each entry.
1. CNC(=O)c1cccc(F)c1Nc1nc(Nc2ccc3c(c2)N(C(C)=O)CCCO3)ncc1Cl [Example 1701]
2. CCN1C(=O)CN(C(C)=O)Cc2ccc(Nc3ncc(Cl)c(Nc4c(C)csc4C(=O)NC)n3)cc21 [Example 1852]
3. C#CCNC(=O)c1cccc(F)c1Nc1nc(Nc2ccc3c(c2)N(CCN(C)C)CCCC3(C)C)ncc1Cl [Example 1639]
4. CNC(=O)c1sc(C)c(C)c1Nc1nc(Nc2ccc3c(c2)CCOC(=O)N3C)ncc1Cl [Example 1772]
5. CNCc1ccccc1Nc1nc(Nc2ccc3c(c2)CCOC(=O)N3C)ncc1Cl [Example 1791]
6. CNC(=O)c1sc(Cl)c(C)c1Nc1nc(Nc2ccc3c(c2)CCOC(=O)N3C)ncc1Cl [Example 1770]
7. COc1cc2c(cc1Nc1ncc(Cl)c(N[C@H]3[C@@H](C(N)=O)[C@@H]4C=C[C@H]3C4)n1)CCN(CCO)CC2 [Example 1532]
8. Cc1cccc(C(N)=O)c1Nc1nc(Nc2ccc3c(c2)C(C)(C)CCC(=O)N3)ncc1Cl [Example 1476]

**A:**
1: 100 to 1000 nM; 2: < 100 nM; 3: < 100 nM; 4: 1000 to 10000 nM; 5: 1000 to 10000 nM; 6: 100 to 1000 nM; 7: < 100 nM; 8: 100 to 1000 nM

Go through the list and state IC50 for each entry.
1. CCN1CC(=O)N(CC)c2cc(Nc3ncc(Cl)c(Nc4c(C)csc4C(=O)NC)n3)ccc2C1 [Example 1874]
2. COCCN1CCc2ccc(Nc3ncc(Cl)c(Nc4c(F)cccc4OCC(=O)OC)n3)cc2CC1 [Example 1727]
3. COc1cc2c(cc1Nc1ncc(Cl)c(N[C@@H]3CCCC[C@H]3NS(C)(=O)=O)n1)CCN(CCN1CCOCC1)CC2 [Example 1533]
4. COc1cc2c(cc1Nc1ncc(Cl)c(N[C@H]3[C@@H](C(N)=O)[C@@H]4C=C[C@H]3C4)n1)CCN(C[C@@H](C)O)CC2 [Example 1559]

**A:**
100 to 1000 nM
1000 to 10000 nM
< 100 nM
< 100 nM
